Would you mind telling me the reported CA2 human SPR pKD of each entry?
- Experimental target: human CA-II (CA2) (Homo sapiens (Human))
- Assay protocol: Surface plasmon resonance, carbonic anhydrase II
- Conditions used: 25° C., CM5 chip
Number, no unit, nothing else.

Exercise: Name the recorded CA2 human SPR pKD of the item Cc1nc2n(C[C@H]3C[C@H]4C[C@@H]3CN4S(N)(=O)=O)cc(-c3ccc(F)cc3)c(=O)n2n1 in your answer.
Solution: 3.0

Exercise: Name the recorded CA2 human SPR pKD of the item CC(C)c1cn(Cc2c(F)cc(S(C)(=N)=O)cc2F)c2nc(C3CC3)nn2c1=O (stereo not shown) in your answer.
Solution: 3.0

Exercise: Name the recorded CA2 human SPR pKD of the item Cc1cc(S(C)(=N)=O)ccc1Cn1cc(C(C)C)c(=O)n2nc(C3CC3)cc12 (stereo not shown) in your answer.
Solution: 3.8

Exercise: Name the recorded CA2 human SPR pKD of the item CC(C)c1nn2c(=O)c(C(C)C)cn(C[C@H]3C[C@H]4C[C@@H]3CN4S(N)(=O)=O)c2c1F in your answer.
Solution: 4.8

Exercise: Name the recorded CA2 human SPR pKD of the item CC(C)c1cn(C[C@H]2C[C@H]3C[C@@H]2CN3S(N)(=O)=O)c2c3cccnc3nn2c1=O in your answer.
Solution: 3.0

* * *

- Experimental target: Human ENPP1 (Homo sapiens (Human), UniProt P22413)
- Sequence (P22413 whole entry): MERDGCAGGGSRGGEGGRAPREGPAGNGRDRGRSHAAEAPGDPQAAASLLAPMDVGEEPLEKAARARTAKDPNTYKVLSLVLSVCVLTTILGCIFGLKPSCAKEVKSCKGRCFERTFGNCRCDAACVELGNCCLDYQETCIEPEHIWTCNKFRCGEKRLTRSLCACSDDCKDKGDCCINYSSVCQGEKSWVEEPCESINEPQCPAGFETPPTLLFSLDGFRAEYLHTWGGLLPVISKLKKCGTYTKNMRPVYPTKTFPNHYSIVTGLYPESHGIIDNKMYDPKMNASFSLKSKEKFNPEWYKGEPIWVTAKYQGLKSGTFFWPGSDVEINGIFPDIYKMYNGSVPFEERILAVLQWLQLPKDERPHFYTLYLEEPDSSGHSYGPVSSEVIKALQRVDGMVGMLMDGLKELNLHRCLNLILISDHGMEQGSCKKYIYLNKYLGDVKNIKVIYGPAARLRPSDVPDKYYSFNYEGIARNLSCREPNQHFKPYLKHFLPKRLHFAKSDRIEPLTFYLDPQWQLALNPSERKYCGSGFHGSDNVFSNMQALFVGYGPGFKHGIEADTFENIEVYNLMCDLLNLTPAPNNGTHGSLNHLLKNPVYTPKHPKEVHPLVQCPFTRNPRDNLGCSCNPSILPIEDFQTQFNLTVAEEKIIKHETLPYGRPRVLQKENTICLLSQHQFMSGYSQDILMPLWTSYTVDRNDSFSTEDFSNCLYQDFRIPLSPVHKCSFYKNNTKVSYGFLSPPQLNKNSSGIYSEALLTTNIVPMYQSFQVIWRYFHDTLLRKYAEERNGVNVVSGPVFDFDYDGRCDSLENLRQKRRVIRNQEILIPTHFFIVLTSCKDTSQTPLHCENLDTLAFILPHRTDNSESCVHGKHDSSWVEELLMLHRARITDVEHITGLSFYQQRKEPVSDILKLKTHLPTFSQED
- Assay protocol: biochemical
Would you mind telling me the reported pEC50 of each entry?
Hey, just a heads up that pEC50 is the negative log base 10 of the concentration in molar.

Exercise: Write down measured pEC50 (Human ENPP1 (Homo sapiens (Human), UniProt P22413)) for this compound. CCS(=N)(=O)c1ccc(Cn2cc(C(C)C)c(=O)n3nc(C4CC4)nc23)cc1 (racemic)
Solution: 8.60

Exercise: Write down measured pEC50 (Human ENPP1 (Homo sapiens (Human), UniProt P22413)) for this compound. Cc1cc(Cn2cc(C(C)C)c(=O)n3nc(C4CC4)cc23)ccc1S(C)(=N)=O (racemic)
Solution: 8.70

Exercise: Write down measured pEC50 (Human ENPP1 (Homo sapiens (Human), UniProt P22413)) for this compound. CC(C)c1cn(Cc2ccc(S(C)(=N)=O)cc2)c2nc(CC(F)(F)F)nn2c1=O (single isomer, unassigned) [Compound 32A]
Solution: 8.20

Exercise: Write down measured pEC50 (Human ENPP1 (Homo sapiens (Human), UniProt P22413)) for this compound. CC(C)c1cn(Cc2ccc(S(C)(=N)=O)cc2)c2nc(CC(F)(F)F)nn2c1=O (racemic) [32 Rac]
Solution: 8.10

* * *

Would you mind telling me the reported Kd of each entry?
- Experimental target: human CA-I (CA1) (Homo sapiens (Human))
- Sequence (P00915 whole entry): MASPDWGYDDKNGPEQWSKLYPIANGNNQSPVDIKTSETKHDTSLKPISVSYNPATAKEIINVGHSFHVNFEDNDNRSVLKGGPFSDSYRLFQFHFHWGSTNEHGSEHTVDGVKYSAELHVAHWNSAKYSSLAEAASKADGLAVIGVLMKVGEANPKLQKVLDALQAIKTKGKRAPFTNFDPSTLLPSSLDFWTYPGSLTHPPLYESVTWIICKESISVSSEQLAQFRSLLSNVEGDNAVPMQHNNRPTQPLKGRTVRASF

Exercise: Name the recorded Kd of the item CCc1nc2n(Cc3ccc([S@](C)(=N)=O)cc3)cc(C(C)C)c(=O)n2n1 (single isomer, unassigned) [Compound 31B] in your answer.
Solution: > 100 mM

Exercise: Name the recorded Kd of the item CC(C)c1cn(Cc2ccc(S(C)(=N)=O)cc2)c2nc(CC(F)(F)F)nn2c1=O (single isomer, unassigned) [Compound 32A] in your answer.
Solution: > 100 mM

Exercise: Name the recorded Kd of the item CCc1nc2n(Cc3ccc([S@@](C)(=N)=O)cc3)cc(C(C)C)c(=O)n2n1 (single isomer, unassigned) [Compound 31A] in your answer.
Solution: > 100 mM

Exercise: Name the recorded Kd of the item CC(C)c1cn(Cc2ccc([S@@](C)(=N)=O)cc2)c2nc(CC(F)(F)F)nn2c1=O (single isomer, unassigned) [Compound 32B] in your answer.
Solution: > 100 mM

Exercise: Name the recorded Kd of the item Cc1cc2n(Cc3ccc(S(C)(=N)=O)cc3)cc(C(C)C)c(=O)n2n1 (racemic) in your answer.
Solution: > 100 mM

Exercise: Name the recorded Kd of the item CC(C)c1cn(C[C@H]2C[C@H]3C[C@@H]2CN3S(N)(=O)=O)c2nc(C(F)(F)F)nn2c1=O (racemic) in your answer.
Solution: > 100 mM

* * *

Would you mind telling me the reported pEC50 of each entry?
- Experimental target: ENPP1 expressed by MCF-7 cells (Homo sapiens (Human), UniProt P22413)
- Sequence (P22413 whole entry): as the sequence (P22413 whole entry) above
- Assay protocol: cell-based
Hey, just a heads up that pEC50 is the negative log base 10 of the concentration in molar.

Exercise: Name the recorded pEC50 of the item Cc1cc(Cn2cc(C(C)C)c(=O)n3nc(C4CC4)cc23)ccc1[S@@](C)(=N)=O (single isomer, unassigned) [Compound 58A] in your answer.
Solution: 6.70

Exercise: Name the recorded pEC50 of the item CC(C)c1cn(Cc2ccc(S(C)(=N)=O)cc2)c2nc(CC(F)(F)F)nn2c1=O (single isomer, unassigned) [Compound 32A] in your answer.
Solution: 7.10

Exercise: Name the recorded pEC50 of the item Cc1cc(Cn2cc(C(C)C)c(=O)n3nc(C4CC4)nc23)ccc1S(C)(=N)=O (stereo not shown) in your answer.
Solution: 6.60

Exercise: Name the recorded pEC50 of the item CC(C)c1cn(Cc2ccc([S@@](=N)(=O)C3CC3)cc2)c2nc(C3CC3)nn2c1=O (single isomer, unassigned) in your answer.
Solution: 7.60

Exercise: Name the recorded pEC50 of the item CC(C)c1nc2n(Cc3ccc(S(C)(=N)=O)cc3)cc(C(C)C)c(=O)n2n1 (stereo not shown) in your answer.
Solution: 7.10

Exercise: Name the recorded pEC50 of the item CC(C)c1cn(Cc2ccc([S@](C)(=N)=O)c(F)c2)c2cc(C3CC3)nn2c1=O (single isomer, unassigned) in your answer.
Solution: 6.70

Exercise: Name the recorded pEC50 of the item CC[S@](=N)(=O)c1ccc(Cn2cc(C(C)C)c(=O)n3nc(C4CC4)nc23)cc1 (single isomer, unassigned) [Compound 56A] in your answer.
Solution: 7.40

* * *

- Experimental target: human CA-I (CA1) (Homo sapiens (Human))
- Assay protocol: Surface plasmon resonance, carbonic anhydrase I
- Conditions used: 25° C., CM5 chip
Value kind: CA1 human SPR pKD

Exercise: Name the recorded CA1 human SPR pKD of the item CC(C)c1cn(Cc2ccc([S@](C)(=N)=O)cc2F)c2nc(C3CC3)nn2c1=O (single isomer, unassigned) [Compound 69] in your answer.
Solution: <1

Exercise: Name the recorded CA1 human SPR pKD of the item CC(C)c1cn(Cc2ccc(S(C)(=N)=O)cc2F)c2cc(C3CC3)nn2c1=O (stereo not shown) [Compound 62] in your answer.
Solution: <1

Exercise: Name the recorded CA1 human SPR pKD of the item Cc1cc(S(C)(=N)=O)ccc1Cn1cc(C(C)C)c(=O)n2nc(C3CC3)cc12 (stereo not shown) [Compound 61] in your answer.
Solution: 3.0

Exercise: Name the recorded CA1 human SPR pKD of the item CC(C)c1nc2n(Cc3ccc(S(C)(=N)=O)cc3)cc(C(C)C)c(=O)n2n1 (stereo not shown) [Compound 30] in your answer.
Solution: <1

* * *

- Experimental target: Human ENPP1 (Homo sapiens (Human), UniProt P22413)
Value kind: EC50 (nM)
Field format: number, assumed nM, no unit text.

Exercise: Name the recorded EC50 of the item CC(C)c1cn(Cc2ccc(S(C)(=N)=O)cc2)c2nc(OC3CC3)nn2c1=O (stereo not shown) [Compound 25] in your answer.
Solution: 6.31

Exercise: Name the recorded EC50 of the item Cc1cc(Cn2cc(C(C)C)c(=O)n3nc(C4CC4)cc23)ccc1[S@@](C)(=N)=O (single isomer, unassigned) [Compound 58A] in your answer.
Solution: 1.26

Exercise: Name the recorded EC50 of the item CC(C)c1cn(Cc2ccc([S@@](=N)(=O)C(C)C)cc2)c2nc(C3CC3)nn2c1=O (single isomer, unassigned) [Compound 68] in your answer.
Solution: 6.31

Exercise: Name the recorded EC50 of the item CC(C)c1cn(Cc2ccc(S(=N)(=O)C3CC3)cc2)c2nc(C3CC3)nn2c1=O (stereo not shown) [Compound 54] in your answer.
Solution: 1.26

Exercise: Name the recorded EC50 of the item CC(C)c1cn(Cc2ccc([S@@](=N)(=O)C3CC3)cc2)c2nc(C3CC3)nn2c1=O (single isomer, unassigned) [Compound 55] in your answer.
Solution: 0.316

Exercise: Name the recorded EC50 of the item Cc1cc([S@@](C)(=N)=O)ccc1Cn1cc(C(C)C)c(=O)n2nc(C3CC3)cc12 (single isomer, unassigned) [Compound 66] in your answer.
Solution: 1.26

Exercise: Name the recorded EC50 of the item Cc1cc(Cn2cc(C(C)C)c(=O)n3nc(C4CC4)nc23)ccc1[S@](C)(=N)=O (single isomer, unassigned) [Compound 65] in your answer.
Solution: 1.58

* * *

Hi! I'm sharing some EC50 results obtained with Human ENPP1 (Homo sapiens (Human), UniProt P22413).
Field format: number, assumed nM, no unit text.

Exercise: Write down measured EC50 (Human ENPP1 (Homo sapiens (Human), UniProt P22413)) for this compound. CC[S@](=N)(=O)c1ccc(Cn2cc(C(C)C)c(=O)n3nc(C4CC4)nc23)cc1 (single isomer, unassigned) [Compound 56A]
Solution: 1

Exercise: Write down measured EC50 (Human ENPP1 (Homo sapiens (Human), UniProt P22413)) for this compound. CC(C)c1cn(Cc2ccc(S(=N)(=O)C(C)C)cc2)c2nc(C3CC3)nn2c1=O (centres unmarked)
Solution: 7.94

Exercise: Write down measured EC50 (Human ENPP1 (Homo sapiens (Human), UniProt P22413)) for this compound. Cc1nc2n(C[C@H]3C[C@H]4C[C@@H]3CN4S(N)(=O)=O)cc(-c3cccc(F)c3)c(=O)n2n1
Solution: 100

Exercise: Write down measured EC50 (Human ENPP1 (Homo sapiens (Human), UniProt P22413)) for this compound. Cc1nc2n(C[C@H]3C[C@H]4C[C@@H]3CN4S(N)(=O)=O)cc(-c3ccc(F)cc3)c(=O)n2n1
Solution: 3.98

Exercise: Write down measured EC50 (Human ENPP1 (Homo sapiens (Human), UniProt P22413)) for this compound. CC(C)c1cn(Cc2ccc(S(N)(=O)=O)c(-c3ccccc3)n2)c2nc(C3CC3)nn2c1=O
Solution: 6.31

Exercise: Write down measured EC50 (Human ENPP1 (Homo sapiens (Human), UniProt P22413)) for this compound. CC(C)c1cn(Cc2ccc3c(c2)CCS3(=N)=O)c2nc(C3CC3)nn2c1=O (centres unmarked)
Solution: 31.6

Exercise: Write down measured EC50 (Human ENPP1 (Homo sapiens (Human), UniProt P22413)) for this compound. CC(C)c1cn(C[C@H]2C[C@H]3C[C@@H]2CN3S(N)(=O)=O)c2nc(Cl)nn2c1=O
Solution: 15.8

Exercise: Write down measured EC50 (Human ENPP1 (Homo sapiens (Human), UniProt P22413)) for this compound. CC(C)c1cn(C[C@H]2C[C@H]3C[C@@H]2CN3S(N)(=O)=O)c2c(C#N)c(C3CC3)nn2c1=O
Solution: 6.31

Exercise: Write down measured EC50 (Human ENPP1 (Homo sapiens (Human), UniProt P22413)) for this compound. COc1c(C2CC2)nn2c(=O)c(C(C)C)cn(C[C@H]3C[C@H]4C[C@@H]3CN4S(N)(=O)=O)c12
Solution: 5.01

Exercise: Write down measured EC50 (Human ENPP1 (Homo sapiens (Human), UniProt P22413)) for this compound. CC(C)c1nc2n(Cc3ccc(S(C)(=N)=O)cc3)cc(C(C)C)c(=O)n2n1 (centres unmarked)
Solution: 3.98

Exercise: Write down measured EC50 (Human ENPP1 (Homo sapiens (Human), UniProt P22413)) for this compound. CC(C)c1cn(Cc2ccc(S(C)(=N)=O)c(C(F)(F)F)c2)c2cc(C3CC3)nn2c1=O (centres unmarked)
Solution: 6.31
